Target: recombinant full-length PHGDH (Homo sapiens, UniProt O43175)
Construct: encoding for the full-length enzyme (aa 1-533); His6 (N, cleaved yes); TEV protease recognition site (N, cleaved yes); made in house; host or cells: E. coli Rosetta (DE3)
Sequence (O43175 whole entry, the tested form may be a part): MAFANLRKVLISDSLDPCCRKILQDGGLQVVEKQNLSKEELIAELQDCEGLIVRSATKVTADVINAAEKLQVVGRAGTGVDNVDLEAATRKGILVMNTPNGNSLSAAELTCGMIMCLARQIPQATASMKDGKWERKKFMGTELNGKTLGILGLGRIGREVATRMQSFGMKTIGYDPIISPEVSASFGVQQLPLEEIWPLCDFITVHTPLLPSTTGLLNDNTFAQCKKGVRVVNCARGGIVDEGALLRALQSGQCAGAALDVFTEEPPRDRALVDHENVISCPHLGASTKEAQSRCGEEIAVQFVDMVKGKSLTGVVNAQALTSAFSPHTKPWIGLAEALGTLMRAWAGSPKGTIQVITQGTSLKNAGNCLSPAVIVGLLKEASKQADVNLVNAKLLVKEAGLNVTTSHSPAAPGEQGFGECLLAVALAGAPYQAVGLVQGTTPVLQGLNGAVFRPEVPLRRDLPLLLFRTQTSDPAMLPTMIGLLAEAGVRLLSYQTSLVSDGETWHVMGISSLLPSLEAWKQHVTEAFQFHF
Test: Differential scanning fluorimetry (DSF) thermal shift assay, fragment screen
Assay type: binding
Parameters: key: Z-score of Tm shift, in standard deviations from the screen mean
Details: average Z score of primary fragment screens by DSF
assay readout: Z score

Study these solved cases before continuing.
COc1ccc(NC(C)=O)cc1Cl [Fragment 15, N-(3-chloro-4-methoxyphenyl) acetamide]	1.2
Cc1cncc(Oc2cccc(N)c2)n1 [Fragment 11, 3-(6-Methylpyrazin-2-yl)oxyaniline]	1.1
Cc1cccc2cc[nH]c12 [Fragment 6, 7-Methyl-1H-indole]	1.1
Oc1ncnc2cccc(F)c12 [Fragment 4, 5-Fluoro-4-hydroxy quinazoline]	1.0

[A] Nc1cccc(-c2cnco2)c1 [Fragment 10, 3-(1,3-oxazol-5-yl)aniline]
[B] Cn1ccc2cc(N)ccc21 [Fragment 9, 5-Amino-1-methyl-1H-indole]
Exam item: Which of the two items, A and B , has the greater recorded Z score? Please respond with the label that marks your chosen entry.
Marked response: B
(B: 1.8, A: 1.0)
